For each of the compounds below, state its drug sensitivity score.
Tested on: FMOC22 (patient-derived mucinous ovarian cancer cells)
Test: drug sensitivity score (DSS3, normalised partial AUC of % inhibition dose-response) (DSS (score)); higher = more sensitive (stronger inhibition of viability); extreme values may be limits of the assay
Details: 72 h; library: FO5A; assay format: 2D, 384-well, CellTiter-Glo
Give the value as a plain number.

Reported drug sensitivity score of `NS(=O)(=O)OC[C@@H]1C[C@@H](n2ccc3c(N[C@H]4CCc5ccccc54)ncnc32)C[C@@H]1O` : 12.6

Looking up `CN1CCN(c2cc(C(=O)Nc3ccc4c(c3)-c3c(c(C(N)=O)nn3-c3ccc(F)cc3)CC4)c(Cl)cn2)CC1` , I found its drug sensitivity score recorded as 4.6

Sample `O=C(NCc1ccncc1)C12CC3CC(C1)CC(c1ccc(Cl)cc1)(C3)C2` ; drug sensitivity score observed: 5.2

The compound `Cc1cc(Nc2cc(CN3CCOCC3)c3nc(C)c(Cc4ccc(Cl)cc4F)n3n2)n[nH]1` showed drug sensitivity score equal to 1.8

---

Please provide measured drug sensitivity score for the entries that follow.
System: FMOC03 (patient-derived mucinous ovarian cancer cells)
Test: drug sensitivity score (DSS3, normalised partial AUC of % inhibition dose-response) (DSS (score)); higher = more sensitive (stronger inhibition of viability); extreme values may be limits of the assay
Conditions: 72 h; library: FO5A; assay format: 2D, 384-well, CellTiter-Glo

Summary line: COc1ccccc1S(=O)(=O)Nc1ccc2c(c1)CN(C)C(=O)N2 [PFI-1] , FMOC03, reported drug sensitivity score = 2.9

# Cn1c(Nc2ccc(C(F)(F)F)cc2)nc2cc(Oc3ccnc(-c4ncc(C(F)(F)F)[nH]4)c3)ccc21 [NVP-RAF265] with FMOC03: drug sensitivity score is 2

Simply: COCC1(CO)C(=O)C2CCN1CC2 (centres undefined) [APR-246] , FMOC03, drug sensitivity score = 0

Item CC(C)[C@H](C(=O)Nc1ccc(C(=O)NO)cc1)c1ccccc1 [AR-42] was tested on FMOC03; the reported drug sensitivity score is 12.4

Test item CC[C@]12C=CCN3CC[C@@]4(c5cc([C@@]6(C(=O)OC)C[C@@H]7C[C@@H](C(C)(F)F)CN(Cc8c6[nH]c6ccccc86)C7)c(OC)cc5N(C)[C@H]4[C@@](O)(C(=O)OC)[C@@H]1OC(C)=O)[C@@H]32 [Vinflunine] ; FMOC03; reported drug sensitivity score was 1.7

Simply: CN1CCC(CNc2ccc3ncc(-c4cccc(OC(F)(F)F)c4)n3n2)CC1 [SGI-1776] , FMOC03, drug sensitivity score = 6.1

Let me check: `Cc1ccc(C(=O)N(CCCN)[C@@H](c2oc3cc(Cl)ccc3c(=O)c2Cc2ccccc2)C(C)C)cc1` , system FMOC03, measured drug sensitivity score is 1.8

# drug sensitivity score measured on FMOC03 for item O=C(O)CC[C@H]1CC[C@@](c2cc(F)ccc2F)(S(=O)(=O)c2ccc(Cl)cc2)CC1 [MK-0752] = 0

Bench note, FMOC03: COc1c(OCCCN2CCOCC2)ccc2c1N=C(NC(=O)c1cnc(N)nc1)N1CCN=C21 [Copanlisib] , drug sensitivity score reads 8.5

---

So I've got a bunch of compounds here, and I need their drug sensitivity score values.
System: FMOC06 (patient-derived mucinous ovarian cancer cells)
Experiment: drug sensitivity score (DSS3, normalised partial AUC of % inhibition dose-response) (DSS (score)); higher = more sensitive (stronger inhibition of viability); extreme values may be limits of the assay
Settings: 72 h; library: FO5A; assay format: 2D, 384-well, CellTiter-Glo

drug sensitivity score value, target or system FMOC06, for `Nc1nc(NC2CC2)cc(-c2cccc(Cl)c2Cl)n1` : 0

FMOC06 data for `Nc1ccccc1NC(=O)c1ccc(CNc2nccc(-c3cccnc3)n2)cc1` ; its drug sensitivity score: 10.9

Measured on FMOC06, `CN(C)C1CCN(C(=O)c2ccc(NC(=O)Nc3ccc(-c4nc(N5CCOCC5)nc(N5CCOCC5)n4)cc3)cc2)CC1` has a documented drug sensitivity score of 12.4

# `CNc1nc(-c2ccc3c(N)n[nH]c3c2)cc(N2C[C@@H](C(=O)NC3CCCCC3)CC[C@H]2C)n1` with FMOC06: drug sensitivity score is 4.2

Value (drug sensitivity score, FMOC06) for record `C[C@H](Nc1ncnc2[nH]cnc12)c1cc2ccc(F)cc2nc1-c1ccccn1` = 0

`O=C(NCc1ccncc1)C12CC3CC(C1)CC(c1ccc(Cl)cc1)(C3)C2` on FMOC06 gives drug sensitivity score = 5.6

The measured drug sensitivity score that `CCCOc1ccn2c(C(C)=O)cc(-c3ccccc3S(C)(=O)=O)c2c1` showed for FMOC06 is 0

Bench note, FMOC06: entry `CC1=C2C[C@H]3[C@@H](CC[C@@H]4C[C@H](NS(C)(=O)=O)CC[C@@]43C)[C@@H]2CC[C@@]2(C1)O[C@@H]1C[C@H](C)CN[C@H]1[C@H]2C` , its drug sensitivity score = 0

drug sensitivity score for FMOC06 with input `C[C@H]1C[C@@H]2[C@H]([C@@H](O)C[C@@]3(C)[C@H]2CC[C@]3(O)C(=O)CO)[C@@]2(C)C=CC(=O)C=C12` equals 0.1

FMOC06 data for `COC(=O)c1ccc2c(c1)[nH]c1ncnc(NCCCN3CCCCC3)c12` ; its drug sensitivity score: 0

Log: FMOC06, compound `Cc1c(-c2c(-c3ccc(F)o3)sc3ncnc(O[C@H](Cc4ccccc4OCc4ccnn4CC(F)(F)F)C(=O)O)c23)ccc(OCCN2CCN(C)CC2)c1Cl` , drug sensitivity score = 0

# lookup: `CC[C@]1(O)C[C@@H]2CN(CCc3c([nH]c4ccccc34)[C@@](C(=O)OC)(c3cc4c(cc3OC)N(C)[C@H]3[C@@](O)(C(=O)OC)[C@H](OC(C)=O)[C@]5(CC)C=CCN6CC[C@]43[C@@H]65)C2)C1` on FMOC06, drug sensitivity score = 2.4

For the compound `O=C(CCCCCCC(=O)Nc1ccccc1)NO` , the measured drug sensitivity score on FMOC06 was 7.4

drug sensitivity score for FMOC06 with input `CNC(=O)c1nn(C)c2c1C(C)(C)Cc1cnc(Nc3ccc(N4CCN(C)CC4)cc3)nc1-2` equals 6.8

Tested on FMOC06: `O=C(NOCCO)c1ccc2cncn2c1Nc1ccc(I)cc1F` . Observed drug sensitivity score: 6.1

---

Test system: FMOC24 (patient-derived high-grade serous ovarian cancer cells)
Assay: drug sensitivity score (DSS3, normalised partial AUC of % inhibition dose-response) (DSS (score)); higher = more sensitive (stronger inhibition of viability); extreme values may be limits of the assay
Details: 72 h; library: FO5A; assay format: 2D, 384-well, CellTiter-Glo
Quick rule: drug sensitivity score of at least 1 means Fulfilled, below that means Not fulfilled.

In: State whether the measured drug sensitivity score reaches 1, counting equality as reaching it, for `C=C1C[C@@H]2[C@H](CC[C@]3(C)C(=O)CC[C@@H]23)[C@@]2(C)C=CC(=O)C=C12`
Out: Not fulfilled

In: Decide: is the reported value of drug sensitivity score for `CC/C(=C(\c1ccccc1)c1ccc(OCCN(C)C)cc1)c1ccccc1` equal to or greater than 1?
Out: Fulfilled

In: Hello, I need to know if `CCN1CCN(c2ccc(Nc3cc(N(C)C(=O)Nc4c(Cl)c(OC)cc(OC)c4Cl)ncn3)cc2)CC1` has measured drug sensitivity score not below 1. Thanks!
Out: Not fulfilled

In: Quick check: does `COc1ccc(CCc2nc3cc(-c4c(C)noc4C)ccc3n2C[C@H](C)N2CCOCC2)cc1Cl` have drug sensitivity score greater than or equal to 1?
Out: Fulfilled

In: Reported drug sensitivity score reaches at least 1 for `Oc1ncnc2[nH]ncc12` ?
Out: Not fulfilled

In: Form field: drug sensitivity score at least 1? Entry: `Cc1ncc(-c2ccnc(Nc3ccc(S(C)(=O)=O)cc3)n2)n1C(C)C`
Out: Fulfilled

In: Reported drug sensitivity score reaches at least 1 for `Nc1ncnc2c1c(COc1cccc(Cl)c1)nn2C1CCOCC1` ?
Out: Not fulfilled

In: Could you tell me if the measured drug sensitivity score of `CC(=O)OC[C@H]1O[C@@H]([S-])[C@H](OC(C)=O)[C@@H](OC(C)=O)[C@@H]1OC(C)=O.CCP(CC)CC.[Au+]` reaches 1 or more?
Out: Fulfilled

---

Provide the reported drug sensitivity score of each item.
System: FMOC14 (patient-derived high-grade serous ovarian cancer cells)
Experiment: drug sensitivity score (DSS3, normalised partial AUC of % inhibition dose-response) (DSS (score)); higher = more sensitive (stronger inhibition of viability); extreme values may be limits of the assay
Settings: 72 h; library: FO5A; assay format: 2D, 384-well, CellTiter-Glo
Response field accepts a number only; no unit should be typed.

The observed drug sensitivity score for `CC(C)(C)C[C@@H]1N[C@@H](C(=O)N[C@H]2CC[C@H](O)CC2)[C@H](c2cccc(Cl)c2F)[C@]12C(=O)Nc1cc(Cl)ccc12` when tested with FMOC14 stands at 1.6

Tested on FMOC14, the item `C=CCc1cccc(/C=N/NC(=O)CN2CCN(Cc3ccccc3)CC2)c1O` showed drug sensitivity score equal to 5

// compound `Nc1nc(NC2CC2)cc(-c2cccc(Cl)c2Cl)n1` , assay FMOC14, drug sensitivity score value: 0.2

Entry `Cc1ncc(-c2ccnc(Nc3ccc(S(C)(=O)=O)cc3)n2)n1C(C)C` ; assay system FMOC14; drug sensitivity score recorded at 9.7

drug sensitivity score of `CN1CCN(c2nc(C3=C(c4c[nH]c5ccccc45)C(=O)NC3=O)c3ccccc3n2)CC1` , assay on FMOC14, is 0

I looked up `COc1cc2c(NC3CCN(C(C)C)CC3)nc(C3CCCCC3)nc2cc1OCCCN1CCCC1` and its drug sensitivity score for FMOC14 was 3.1

Entry `CC(C)(C)Cn1c(N)nc2ccc(-c3[nH]c(C(C)(C)C)nc3-c3ccc(F)cc3)nc21` ; assay system FMOC14; drug sensitivity score recorded at 2.2

Tested on FMOC14: `Cc1ccc(C(=O)N(CCCN)[C@@H](c2oc3cc(Cl)ccc3c(=O)c2Cc2ccccc2)C(C)C)cc1` . Observed drug sensitivity score: 0

Fill in: FMOC14 drug sensitivity score for `COc1cc(C)c(/C=C/C(C)=C/C=C/C(C)=C/C(=O)O)c(C)c1C` = 0

Field drug sensitivity score (system: FMOC14) for entry `CONC(=O)c1ccccc1Nc1cc(Nc2cc(C)nn2C(C)C)ncc1Cl` = 0

Response field drug sensitivity score (FMOC14) for item `CCNC(=O)CCC/C=C\C[C@@H]1[C@@H](/C=C/[C@@H](O)CCc2ccccc2)[C@H](O)C[C@@H]1O` : 0

The compound O=c1[nH]c(C2CCCN2)nc2c1oc1ccc(Cl)cc12 (stereo unspecified) , when measured on FMOC14, yielded drug sensitivity score of 0

Recorded drug sensitivity score for O=C(O)CCCCC(CCSCc1ccccc1)SCc1ccccc1 (stereo unspecified) on FMOC14 was 0

GET /values?item= `C[C@H]1CNCCCN1S(=O)(=O)c1cccc2cncc(F)c12` &system= FMOC14 returns drug sensitivity score: 0

The observed drug sensitivity score for `COc1cccc2c1C(=O)c1c(O)c3c(c(O)c1C2=O)C[C@@](O)(/C(CO)=N/NC(=O)CCCCCN1C(=O)C=CC1=O)C[C@@H]3O[C@H]1C[C@H](N)[C@H](O)[C@H](C)O1` when tested with FMOC14 stands at 4.7

Test item `C[C@@]1(C(=O)Nc2ccc(F)nc2)CCCN1c1nc(Nc2cc(C3CC3)n[nH]2)c2cccn2n1` ; FMOC14; reported drug sensitivity score was 2.2

Entry `O=C(Nc1ccc2[nH]nc(-c3ccncc3)c2c1)[C@@H]1CCN(CC(=O)N2CCN(c3ccc(-c4ncccn4)cc3)CC2)C1` , FMOC14 data, drug sensitivity score value: 1.1

Value (drug sensitivity score, FMOC14) for record `CNC(=O)[C@@H](NC(=O)[C@H](CC(C)C)[C@H](O)C(=O)NO)C(C)(C)C` = 0

Form field drug sensitivity score for item `C[C@@H](Oc1cc(-n2cnc3ccc(CN4CCN(C)CC4)cc32)sc1C(N)=O)c1ccccc1C(F)(F)F` on FMOC14: 3.9

# N.N.[Cl][Pt][Cl] [Cisplatin] with FMOC14: drug sensitivity score is 3.7

Considering `CN1CCN(CCOc2cc(OC3CCOCC3)c3c(Nc4c(Cl)ccc5c4OCO5)ncnc3c2)CC1` , its drug sensitivity score with FMOC14 was recorded as 5

Hey, FMOC14 data for `COC(=O)c1ccc2c(c1)NC(=O)/C2=C(\Nc1ccc(N(C)C(=O)CN2CCN(C)CC2)cc1)c1ccccc1` : drug sensitivity score came out at 3.3

Measured on FMOC14, `CCNC(=O)C[C@@H]1N=C(c2ccc(Cl)cc2)c2cc(OC)ccc2-n2c(C)nnc21` has a documented drug sensitivity score of 1.7

Known value: FMOC14 drug sensitivity score of the compound `O=C(Nc1cccnc1)N1CCC(Cc2cccc(Oc3ccc(C(F)(F)F)cn3)c2)CC1` equals 0

Item `C[C@@H](Oc1ccc2[nH]nc(/C=C/c3cnn(CCO)c3)c2c1)c1c(Cl)cncc1Cl` ; assay system FMOC14; drug sensitivity score reported as 0

Response field drug sensitivity score (FMOC14) for item COCC1(CO)C(=O)C2CCN1CC2 (stereo unspecified) : 0
